Molecular target: human ERα (Homo sapiens, UniProt P03372)
Construct: amino acids M250–V595 of human ERα; His tag (N)
Sequence (P03372 250-595): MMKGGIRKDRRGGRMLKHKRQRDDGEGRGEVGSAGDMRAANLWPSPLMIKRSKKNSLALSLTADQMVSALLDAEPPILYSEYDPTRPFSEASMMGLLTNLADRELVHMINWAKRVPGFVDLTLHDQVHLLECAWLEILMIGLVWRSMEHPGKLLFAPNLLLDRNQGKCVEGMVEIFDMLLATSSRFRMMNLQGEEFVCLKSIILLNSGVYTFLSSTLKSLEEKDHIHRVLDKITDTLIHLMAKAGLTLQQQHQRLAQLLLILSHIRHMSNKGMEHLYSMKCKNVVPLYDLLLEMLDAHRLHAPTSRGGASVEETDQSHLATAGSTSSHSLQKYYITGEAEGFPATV
Assay: Radioligand binding competition with [3H]-17β-estradiol, ERα
Settings: human ERα ligand binding domain extract, read-out: ER-α IC50
pIC50: −log10 of the molar value.
The following compounds are listed with their measured pIC50 values.
measuredAttribute: pIC50

[
  {
    "compound": "CC12CCc3c(cc(O)c4cc(O)ccc34)C1CCC2=O (centres unmarked) [Compound 1, 6-Hydroxyequilenin]",
    "measuredResult": 5.66
  },
  {
    "compound": "CC12CCc3c(cc(O)c4cc(O)ccc34)C1CC[C@@H]2O (stereo partly drawn) [Compound 5, 6-Hydroxy-3,17β-dihydroequilenin]",
    "measuredResult": 6.62
  }
]

###

Entries and their IC50 values follow.
Molecular target: human ERβ (Homo sapiens)
Construct: M214–Q530 of human ERβ; Flag (C)
Sequence (Q92731 214-530): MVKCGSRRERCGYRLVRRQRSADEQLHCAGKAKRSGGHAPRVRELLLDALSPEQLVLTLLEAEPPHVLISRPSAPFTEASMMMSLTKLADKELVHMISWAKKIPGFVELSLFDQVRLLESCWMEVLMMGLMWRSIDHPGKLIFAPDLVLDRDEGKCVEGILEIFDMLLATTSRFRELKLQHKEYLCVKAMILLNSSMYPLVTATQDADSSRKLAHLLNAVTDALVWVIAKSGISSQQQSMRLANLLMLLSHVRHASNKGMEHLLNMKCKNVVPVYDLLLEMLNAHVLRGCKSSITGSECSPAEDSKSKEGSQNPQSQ
Assay: Radioligand binding competition with [3H]-17β-estradiol, ERβ
Conditions: human ERβ ligand binding domain extract, read-out: ER-β IC50
measuredAttribute: IC50

[
  {
    "compound": "CC12CCc3c(cc(O)c4cc(O)ccc34)C1CCC2=O (centres unmarked) [Compound 1, 6-Hydroxyequilenin]",
    "systemTested": "human ERβ (Homo sapiens)",
    "measuredAttribute": "IC50",
    "measuredResult": "123 nM"
  },
  {
    "compound": "CC12CCc3c(cc(O)c4cc(O)ccc34)C1CC[C@@H]2O (stereo partly drawn) [Compound 5, 6-Hydroxy-3,17β-dihydroequilenin]",
    "systemTested": "human ERβ (Homo sapiens)",
    "measuredAttribute": "IC50",
    "measuredResult": "16 nM"
  }
]
